Molecular target: FPRL1 (Homo sapiens, UniProt P25090)
Sequence (P25090 whole entry): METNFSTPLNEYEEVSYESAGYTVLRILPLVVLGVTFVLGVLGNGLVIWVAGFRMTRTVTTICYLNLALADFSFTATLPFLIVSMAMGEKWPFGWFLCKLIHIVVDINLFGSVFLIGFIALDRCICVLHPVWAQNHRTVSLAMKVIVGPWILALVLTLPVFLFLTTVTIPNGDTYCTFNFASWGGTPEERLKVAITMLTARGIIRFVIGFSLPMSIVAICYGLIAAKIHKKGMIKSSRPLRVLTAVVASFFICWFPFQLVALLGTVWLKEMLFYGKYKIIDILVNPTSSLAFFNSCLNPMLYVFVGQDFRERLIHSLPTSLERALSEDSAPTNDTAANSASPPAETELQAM
Test: Competition binding with 125I-WKYMVm on human monocytes
Set-up: endogenous in cells; host or cells: human CD14+ monocytes from buffy coats
Where no end group is shown, it is not given here.
experimentalReadout: pIC50
Bear in mind: pIC50 is minus log10 of a mol/L concentration; give just that figure.

Record summary for MLWRRKIGPQMTLSHAAG [SHAAGtide] : reported pIC50 = 8.00
